- Test system: K-562 leukemia
- Experiment: NCI-60 one-dose screen, 48 h
- Condition notes: 10 µM unless noted
The panel holds about 83,000 compounds, 20% with a hit somewhere; the sample as a whole holds those more often. Active and inactive are the calls of the source. The calls were made as follows: active = growth percent below 10; inactive = the rest.
Field 'call' accepts active, inactive

Could you check what this test reported for `COc1cnc2c(c1)C(=O)c1c-2n(CCCNC2=NCCS2)c(=O)c2cc(Cl)ccc12` ? active

I'd appreciate the recorded outcome for `CN(C)C/C=C/C(=O)Nc1cc2c(Nc3ccc(F)c(Cl)c3)ncnc2cc1O[C@H]1CCOC1` from this test. active

Could you please tell me the result logged for COC(=O)CNC(=O)[C@@H](OC)[C@@H]1Cc2cc3cc(OC4CC(OC5CC(O)C(O)C(C)O5)C(O)C(C)O4)c(C)c(O)c3c(O)c2C(=O)[C@H]1OC1CC(OC2CC(OC3CC(C)(O)C(O)C(C)O3)C(O)C(C)O2)C(O)C(C)O1 (stereo partly drawn) in this assay? inactive
